assayed system: EGFR (Homo sapiens)
Sequence (P00533 25-1210): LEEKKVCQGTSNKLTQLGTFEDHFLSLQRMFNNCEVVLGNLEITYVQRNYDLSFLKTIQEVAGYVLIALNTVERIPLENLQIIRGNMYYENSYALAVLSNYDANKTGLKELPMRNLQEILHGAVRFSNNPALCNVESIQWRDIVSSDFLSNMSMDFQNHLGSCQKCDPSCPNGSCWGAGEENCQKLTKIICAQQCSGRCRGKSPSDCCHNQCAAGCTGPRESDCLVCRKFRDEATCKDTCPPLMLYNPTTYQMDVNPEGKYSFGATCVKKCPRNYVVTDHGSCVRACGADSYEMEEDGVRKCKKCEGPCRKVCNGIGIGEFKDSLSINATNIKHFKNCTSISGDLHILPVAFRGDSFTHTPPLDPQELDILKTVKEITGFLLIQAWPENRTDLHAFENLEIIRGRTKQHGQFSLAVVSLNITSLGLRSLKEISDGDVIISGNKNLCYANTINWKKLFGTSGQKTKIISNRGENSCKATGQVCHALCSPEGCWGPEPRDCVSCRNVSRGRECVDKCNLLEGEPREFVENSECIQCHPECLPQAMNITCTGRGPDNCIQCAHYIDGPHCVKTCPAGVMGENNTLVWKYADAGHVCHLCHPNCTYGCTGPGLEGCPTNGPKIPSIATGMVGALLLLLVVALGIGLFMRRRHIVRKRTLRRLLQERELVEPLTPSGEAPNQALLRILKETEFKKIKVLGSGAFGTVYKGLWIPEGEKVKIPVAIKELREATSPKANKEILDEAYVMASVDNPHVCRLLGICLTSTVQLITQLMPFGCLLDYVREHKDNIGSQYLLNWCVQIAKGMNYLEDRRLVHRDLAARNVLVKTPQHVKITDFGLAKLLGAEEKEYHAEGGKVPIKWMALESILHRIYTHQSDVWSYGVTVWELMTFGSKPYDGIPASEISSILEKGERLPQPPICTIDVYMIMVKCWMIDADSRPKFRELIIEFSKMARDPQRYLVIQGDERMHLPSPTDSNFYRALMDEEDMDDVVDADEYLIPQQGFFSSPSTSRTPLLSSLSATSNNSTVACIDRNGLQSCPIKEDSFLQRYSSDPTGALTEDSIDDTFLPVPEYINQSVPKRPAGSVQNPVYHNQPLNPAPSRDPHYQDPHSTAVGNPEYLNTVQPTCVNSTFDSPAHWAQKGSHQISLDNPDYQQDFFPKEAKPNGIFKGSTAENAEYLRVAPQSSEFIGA
assay overview: mobility shift kinase assay (Caliper, FAM-labeled peptide)
Type: biochemical
measure: IC50 (nM)
Just the number in nM, nothing appended.

Need IC50, item Cc1cccc(Cl)c1NC(=O)Nc1ccc(-c2nc(NCCN(C)C)c3ccccc3n2)cc1
56
